Biological target: Mutant CD33-GFP M16 (4889AII) on 293FT cells (UniProt P20138)
Experiment: FACS, mutant CD33-GFP on 293FT cells
assay endpoint: FACS binding data
I only need the number, thanks.

FACS binding data lookup needed for sdCD33_6 (VHH, sdAb from a naive llama phage library; also called 416; sdAb416) VHH: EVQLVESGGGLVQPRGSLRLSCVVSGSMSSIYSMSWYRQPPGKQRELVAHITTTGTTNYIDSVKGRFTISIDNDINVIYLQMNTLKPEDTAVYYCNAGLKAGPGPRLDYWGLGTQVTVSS , thanks.
80.8

FACS binding data lookup needed for sdCD33_8 (VHH, sdAb from a naive llama phage library; also called 424; sdAb424) VHH: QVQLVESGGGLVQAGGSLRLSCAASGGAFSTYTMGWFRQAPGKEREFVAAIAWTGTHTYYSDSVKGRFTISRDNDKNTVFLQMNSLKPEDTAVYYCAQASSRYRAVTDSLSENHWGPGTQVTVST , thanks.
98.5

FACS binding data lookup needed for sdCD33_2 (VHH) VHH: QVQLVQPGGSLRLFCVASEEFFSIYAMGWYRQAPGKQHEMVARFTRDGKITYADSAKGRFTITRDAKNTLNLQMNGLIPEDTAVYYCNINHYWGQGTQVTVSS , thanks.
98.4

FACS binding data lookup needed for sdCD33_5 (VHH, sdAb from a naive llama phage library; also called 413; sdAb413) VHH: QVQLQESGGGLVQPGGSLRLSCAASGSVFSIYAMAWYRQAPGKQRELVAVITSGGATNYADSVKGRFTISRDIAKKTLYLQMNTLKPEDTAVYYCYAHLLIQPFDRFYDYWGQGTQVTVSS , thanks.
98.3

FACS binding data lookup needed for sdCD33_9 (VHH, sdAb from a naive llama phage library; also called 426; sdAb426) VHH: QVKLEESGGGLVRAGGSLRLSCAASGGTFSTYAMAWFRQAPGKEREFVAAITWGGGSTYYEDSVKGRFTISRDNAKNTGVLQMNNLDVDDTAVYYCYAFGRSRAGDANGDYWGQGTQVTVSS , thanks.
99

FACS binding data lookup needed for sdCD33_4 (VHH) VHH: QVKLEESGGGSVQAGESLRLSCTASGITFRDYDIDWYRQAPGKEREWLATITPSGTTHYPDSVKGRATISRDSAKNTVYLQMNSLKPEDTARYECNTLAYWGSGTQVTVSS , thanks.
98.7
